Data origin: PubChem BioAssay (NCATS)

# Measurement target: Glucocorticoid receptor (Homo sapiens)
# Experiment description: GR-GFP Redistribution (AID 450); further: potency means the concentration at half of the fitted maximal effect
# Cond: U2OS GR-GFP nuclear translocation, laser cytometry, 2 h
Active and inactive are the calls of the source.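 How the source made its calls: active means compounds whose dose series gives a full or clear partial fitted curve of increased nuclear translocation; inconclusive means weak partial curve or effect only at the top dose; inactive means no dose-dependent translocation response.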 Where a SMILES comes first, the peptide text is derived from it.
Reported Potency is given for each of the following compounds.
Assay endpoint: Potency

[[record]]
compound = "Cc1ccc(C)c(C2(O)CC(C)N(C)CC2C)c1 (stereo unspecified)"
result = "> 20.6 µM (inactive)"

[[record]]
compound = "CCCCCCn1c(O)c(C=NCCCn2ccnc2)c(=O)[nH]c1=O"
result = "> 20.6 µM (inactive)"

[[record]]
compound = "O=c1[nH]c(=O)n(Cc2ccccc2)c(O)c1C=NCCN1CCOCC1"
result = "> 20.6 µM (inactive)"

[[record]]
compound = "C[C@]1(C(=O)O)[C@@H]2CC[C@@H](O2)[C@@]1(C)C(=O)O"
result = "> 46 µM (inactive)"

[[record]]
compound = "CCOC(=O)[C@]1(C#N)[C@@H]2C=CC(C(C)=O)=CN2[C@@H](C(N)=O)[C@@H]1c1ccsc1"
result = "> 20.6 µM (inactive)"

[[record]]
compound = "CC1=CC(=O)C2=C(C)C[C@H](O)[C@@H]3[C@@H](OC(=O)[C@H]3C)[C@H]12"
result = "> 46 µM (inactive)"

[[record]]
compound = "CC(C)C[C@H](NC(=O)[C@@H]1CCCN1C(=O)[C@@H](N)Cc1ccc(O)cc1)C(=O)NCC(N)=O (H-YPLG-NH2)"
result = "> 20.6 µM (inactive)"

[[record]]
compound = "CC(C)(C)OC(=O)c1c(N)n(Cc2ccco2)c2nc3ccccc3nc12"
result = "> 20.6 µM (inactive)"

[[record]]
compound = "C[C@]12Cc3cn4c(nc3C=C1CC[C@H]1[C@@H]2CC[C@@]2(C)[C@H]1CC[C@@]2(O)C#N)nc1ccccc14"
result = "> 46 µM (inactive)"

[[record]]
compound = "COc1ccc(C(=O)CN2CCOCC2)cc1F"
result = "> 20.6 µM (inactive)"

[[record]]
compound = "c1cc2cc(c1)C[n+]1ccc(c3ccccc31)NCc1ccc(cc1)CNc1cc[n+](c3ccccc13)C2"
result = "> 46 µM (inactive)"

[[record]]
compound = "C=CCOC(=O)C1=C(C)OC(N)=C(C#N)[C@@]12C(=O)N(CC(N)=O)c1ccccc12"
result = "> 20.6 µM (inactive)"

[[record]]
compound = "CN(C)CCOC(=O)c1cn(Cc2ccccc2)c2ccccc12"
result = "> 20.6 µM (inactive)"

[[record]]
compound = "NC(N)=Nc1ccc2[nH]c3c(c2c1)C[C@]1(O)[C@@H]2Cc4ccc(O)c5c4[C@]1(CCN2CC1CC1)[C@H]3O5"
result = "> 46 µM (inactive)"

[[record]]
compound = "CC(C)OC(=O)c1c(N)n(Cc2ccco2)c2nc3ccccc3nc12"
result = "> 20.6 µM (inactive)"

[[record]]
compound = "CCOc1ccc(Cc2c(O)[nH]c(=O)[nH]c2=O)cc1"
result = "> 20.6 µM (inactive)"

[[record]]
compound = "CN1CCc2nc3sc(C#N)c(N)c3c(-c3cccs3)c2C1"
result = "> 20.6 µM (inactive)"

[[record]]
compound = "CC1CCC(C(C)C)C(OP(N)(=O)c2ccccc2)C1 (stereo unspecified)"
result = "> 20.6 µM (inactive)"

[[record]]
compound = "CCCCSP1(=S)NCCCO1 (stereo unspecified)"
result = "> 20.6 µM (inactive)"

[[record]]
compound = "COC(=O)C(c1ccccc1)N1CCCCCC1 (stereo unspecified)"
result = "> 20.6 µM (inactive)"

[[record]]
compound = "COc1cccc(CN2CCN(C(=O)COc3ccc4ccccc4c3)CC2)c1"
result = "> 20.6 µM (inactive)"


----------
# Experiment description: qHTS assay for small molecule activators of the nuclear factor-kappa B (NF-kB) signaling pathway (AID 651749); further: series mostly up to about 77 µM; % of control where 0% means no effect
# Cond: NF-kB-bla ME-180 cells, beta-lactamase FRET ratio, 16 h; hits give high values
# From the text: National Center for Advancing Translational Sciences [NCATS] NIH Chemical Genomics Center [NCGC] U.S. Environmental Protection Agency [EPA] National Institutes of Environmental Health Sciences [NIEHS] National Toxicology Program [NTP] […] This system quantitates NF-kB activity using a FRET-based assay system where beta-lactamase expression disrupts FRET, allowing for fluorescent measurement of activity. […]
Records with an inconclusive call do not appear.
Assay endpoint: activation (%)

[[record]]
molecule = "CCOP(=S)(OCC)OC(Cl)C(Cl)(Cl)Cl (stereo unspecified)"
assay_endpoint = "activation"
result = 0.0553

[[record]]
molecule = "CC(=NC#N)N(C)Cc1ccc(Cl)nc1"
assay_endpoint = "activation"
result = -0.278

[[record]]
molecule = "COP(=O)(OC)O/C(=C\\Cl)c1cc(Cl)c(Cl)cc1Cl"
assay_endpoint = "activation"
result = -1.17

[[record]]
molecule = "CCOP(=S)(OCC)SC(CCl)N1C(=O)c2ccccc2C1=O (stereo unspecified)"
assay_endpoint = "activation"
result = -1.92

[[record]]
molecule = "C1=Cc2cccc3cccc1c23"
assay_endpoint = "activation"
result = 0.838

[[record]]
molecule = "CCOc1cc(C(C)(C)C)ccc1C1COC(c2c(F)cccc2F)=N1 (stereo unspecified)"
assay_endpoint = "activation"
result = 3.07

[[record]]
molecule = "COC[C@H](C)N(C(=O)CCl)c1c(C)csc1C"
assay_endpoint = "activation"
result = -0.69

[[record]]
molecule = "CC(C1CC1)C(O)(Cn1cncn1)c1ccc(Cl)cc1 (stereo unspecified)"
assay_endpoint = "activation"
result = -1.89

[[record]]
molecule = "O=C(NC(=O)c1c(F)cccc1F)Nc1cc(Cl)c(OC(F)(F)C(F)C(F)(F)F)c(Cl)c1F (stereo unspecified)"
assay_endpoint = "activation"
result = 4.04

[[record]]
molecule = "Cc1c(F)c(F)c(COC(=O)C2C(/C=C(\\Cl)C(F)(F)F)C2(C)C)c(F)c1F (stereo unspecified)"
assay_endpoint = "activation"
result = -3.24

[[record]]
molecule = "CCCCCCCCCCCCC1=C(OC(C)=O)C(=O)c2ccccc2C1=O"
assay_endpoint = "activation"
result = -0.928

[[record]]
molecule = "CNC(=S)S"
assay_endpoint = "activation"
result = -2.14

[[record]]
molecule = "COC(=O)C(C)Oc1ccc(Oc2ccc(Cl)cc2Cl)cc1 (stereo unspecified)"
assay_endpoint = "activation"
result = -0.397

[[record]]
molecule = "CCSC(C)CC1CC(=O)C(/C(CC)=N/OC/C=C/Cl)=C(O)C1 (stereo unspecified)"
assay_endpoint = "activation"
result = 0.614

[[record]]
molecule = "CCC[CH2][Sn](=[O])[CH2]CCC"
assay_endpoint = "activation"
result = -1.97

[[record]]
molecule = "CC(C)NC(=O)N1CC(=O)N(c2cc(Cl)cc(Cl)c2)C1=O"
assay_endpoint = "activation"
result = -3.11

[[record]]
molecule = "CC[C@H]1CCCC(O[C@H]2CC[C@H](N(C)C)[C@@H](C)O2)[C@@H](C)C(=O)C2=C[C@@H]3[C@@H](C=C[C@@H]4C[C@@H](O[C@@H]5O[C@@H](C)[C@H](OC)[C@@H](OC)[C@H]5OC)C[C@@H]34)[C@@H]2CC(=O)O1 (stereo partly specified)"
assay_endpoint = "activation"
result = -0.423

[[record]]
molecule = "CNC(=O)O/N=C(\\C)SC"
assay_endpoint = "activation"
result = -0.423

[[record]]
molecule = "CCC[CH2][Sn]([CH2]CCC)([CH2]CCC)[CH2]CCC"
assay_endpoint = "activation"
result = 1.03

[[record]]
molecule = "CCOP(=O)(OCC)OP(=O)(OCC)OCC"
assay_endpoint = "activation"
result = -0.353

[[record]]
molecule = "CCOc1nc(C(Cl)(Cl)Cl)ns1"
assay_endpoint = "activation"
result = 0.185

[[record]]
molecule = "C=CC(=O)OCC(CC)(COC(=O)C=C)COC(=O)C=C"
assay_endpoint = "activation"
result = 0.162

[[record]]
molecule = "CCCCOCN(C(=O)CCl)c1c(CC)cccc1CC"
assay_endpoint = "activation"
result = -3.81

[[record]]
molecule = "CNC(=O)Oc1cc(C)c(SC)c(C)c1"
assay_endpoint = "activation"
result = -0.568

[[record]]
molecule = "N#Cc1c[nH]cc1-c1cccc2c1OC(F)(F)O2"
assay_endpoint = "activation"
result = -3.39

[[record]]
molecule = "COC(=O)c1ccccc1CS(=O)(=O)NC(=O)Nc1nc(OC)cc(OC)n1"
assay_endpoint = "activation"
result = -0.866

[[record]]
molecule = "O=c1[nH]c2ccccc2c(=O)o1"
assay_endpoint = "activation"
result = -0.747

[[record]]
molecule = "CCCCOC(=O)[C@@H](C)Oc1ccc(Oc2ccc(C#N)cc2F)cc1"
assay_endpoint = "activation"
result = 0.919

[[record]]
molecule = "COP(=O)(OC)O/C(C)=C/C(=O)N(C)C"
assay_endpoint = "activation"
result = -1.74

[[record]]
molecule = "CCOP(=S)(OCC)SCCl"
assay_endpoint = "activation"
result = -1.72

[[record]]
molecule = "COc1cc(OC)nc(NC(=O)NS(=O)(=O)c2ncccc2C(F)(F)F)n1"
assay_endpoint = "activation"
result = -0.0953

[[record]]
molecule = "C=C(C)CN(CC)c1c([N+](=O)[O-])cc(C(F)(F)F)cc1[N+](=O)[O-]"
assay_endpoint = "activation"
result = -4.66

[[record]]
molecule = "COc1ccc(-c2ccccc2)cc1NNC(=O)OC(C)C"
assay_endpoint = "activation"
result = -0.684

[[record]]
molecule = "CCC[CH2][Sn]1([CH2]CCC)[O]C(=O)C=CC(=O)[O]1"
assay_endpoint = "activation"
result = -3.15

[[record]]
molecule = "O=[N+]([O-])c1cc(C(F)(F)F)cc([N+](=O)[O-])c1Cl"
assay_endpoint = "activation"
result = -0.593

[[record]]
molecule = "O=CNC(N1CCN(C(NC=O)C(Cl)(Cl)Cl)CC1)C(Cl)(Cl)Cl (stereo unspecified)"
assay_endpoint = "activation"
result = -2.29

[[record]]
molecule = "[Ga]#[As]"
assay_endpoint = "activation"
result = -0.5

[[record]]
molecule = "CCCCC(CC)C(=O)Cl (stereo unspecified)"
assay_endpoint = "activation"
result = -0.95

[[record]]
molecule = "C/C=C(\\C)C(=O)O[C@H]1C[C@@H](OC(C)=O)[C@@]2(C(=O)OC)CO[C@H]3[C@@H](O)[C@@](C)([C@]45O[C@@]4(C)[C@H]4C[C@@H]5O[C@@H]5OC=C[C@@]54O)[C@H]4[C@]1(CO[C@]4(O)C(=O)OC)[C@@H]32"
assay_endpoint = "activation"
result = -1.4

[[record]]
molecule = "CCC(C)n1c(=O)[nH]c(C)c(Br)c1=O (stereo unspecified)"
assay_endpoint = "activation"
result = 0.0195

[[record]]
molecule = "CC(C)CCCCCCOC(=O)c1ccccc1C(=O)OCCCCCCC(C)C"
assay_endpoint = "activation"
result = 2.38

[[record]]
molecule = "CCNc1nc(NC(C)(C)C)nc(SC)n1"
assay_endpoint = "activation"
result = -1.56

[[record]]
molecule = "O=C(NC(=O)c1c(F)cccc1F)Nc1ccc(OC(F)(F)C(F)OC(F)(F)F)c(Cl)c1 (stereo unspecified)"
assay_endpoint = "activation"
result = 1.61

[[record]]
molecule = "C=CC(=O)OCCCCCC(C)C"
assay_endpoint = "activation"
result = 1.07

[[record]]
molecule = "O=P(O)(O)CN(CP(=O)(O)O)CP(=O)(O)O"
assay_endpoint = "activation"
result = 0.3

[[record]]
molecule = "CC1=NNC(=O)N(/N=C/c2cccnc2)C1"
assay_endpoint = "activation"
result = 0.0556

